- TARGET_OR_SYSTEM: Sphingosine 1-phosphate receptor 5 (Homo sapiens, UniProt Q9H228)
- Sequence (Q9H228 whole entry): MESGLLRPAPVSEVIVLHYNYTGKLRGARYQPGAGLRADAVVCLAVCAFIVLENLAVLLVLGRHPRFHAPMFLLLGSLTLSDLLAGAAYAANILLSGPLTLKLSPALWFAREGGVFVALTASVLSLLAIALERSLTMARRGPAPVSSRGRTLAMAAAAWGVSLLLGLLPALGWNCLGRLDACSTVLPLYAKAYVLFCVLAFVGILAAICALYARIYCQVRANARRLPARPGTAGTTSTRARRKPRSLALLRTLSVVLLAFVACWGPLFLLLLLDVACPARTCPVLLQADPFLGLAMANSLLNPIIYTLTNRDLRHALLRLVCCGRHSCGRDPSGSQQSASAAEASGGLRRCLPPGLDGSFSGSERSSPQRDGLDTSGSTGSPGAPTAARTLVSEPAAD
- PROCEDURE_TEXT: Agonist activity at recombinant human S1PR5 expressed in CHO cell membranes assessed as [35S]GTP-gammaS binding measured after 1.5 hrs by TopCount scintillation counting method
RECORDED_ENDPOINT: EC50 (µM)

SMILES_ENTRY: CC(C)(C)c1ccc(-c2cccc3cc(CNCCCC(=O)O)sc23)cc1
MEASUREMENT_UNIT: µM
EC50: 4.69

[A] Cc1ccccc1-c1cccc2cc(CNCCCC(=O)O)sc12
[B] O=C(O)Cc1cccc(NCc2cc3c(-c4ccc5ccccc5c4)cccc3s2)c1
**Q:** Two entries are listed, A and B . Which one carries the higher EC50? Answer with the label corresponding to your selection.
**A:** A
